Kindly state CONFIRMATORY SCREEN Efficacy (%) for each of the entries shown.
# Tested On: CIB1 and αIIb interaction (CIB1-GST : F-αIIb peptide) (Homo sapiens, UniProt Q99828)
# Construct: made in house; host or cells: BL-21 plus RIL cells (E. coli)
# Sequence (Q99828 1-191): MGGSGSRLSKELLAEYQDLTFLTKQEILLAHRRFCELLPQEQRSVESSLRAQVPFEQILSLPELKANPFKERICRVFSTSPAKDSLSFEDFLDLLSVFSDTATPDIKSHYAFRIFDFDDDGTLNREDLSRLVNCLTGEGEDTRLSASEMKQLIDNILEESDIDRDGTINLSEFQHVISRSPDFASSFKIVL
# Method: FP assay, 1536-well qHTS format (primary and confirmatory screen)
# Type: binding
# Test Conditions: confirmatory screen; negative = inhibition
Report as: number unit

Answered examples (3):
Compound | CONFIRMATORY SCREEN Efficacy (%)
Oc1ccc2ccccc2c1SSc1c(O)ccc2ccccc12 [NCGC00186047-02, IPA-3, reference compound] | -74%
O=C(O)C(F)(F)F.OCc1ccc(-c2ccc3ncnc(NCc4nccs4)c3c2)o1 [NCGC00238383-01] | -52%
O=C(O)C(F)(F)F.O=C(O)c1ccc(-c2ccc3ncnc(NCc4nccs4)c3c2)o1 [NCGC00229620-01] | -55%

For each of the compounds below, state CONFIRMATORY SCREEN Efficacy (%).
1. CCN(CC)C(=S)SSC(=S)N(CC)CC [NCGC00016000-13, disulfiram, reference compound]
2. Cc1ccc(-c2cc(-c3nn(-c4nc(C(=O)O)cs4)c(CC4CC4)c3Cc3ccc(S(N)(=O)=O)c(F)c3)ccc2F)s1.Cl [NCGC00388587-02]
3. Cc1ccccc1S(=O)(=O)Nc1cnccc1C(=O)Nc1nc(-c2ccccc2)cs1.O=C(O)C(F)(F)F [NCGC00344941-01]
4. CC[C@@H](CO)NC(=O)[C@@H]1C=C2c3cccc4[nH]cc(c34)C[C@H]2N(C)C1.O=C(O)/C=C\C(=O)O [NCGC00017258-05]
5. O=C1C(I)=CC(=C(c2cc(I)c([O-])c(I)c2)c2ccccc2C(=O)[O-])C=C1I.[Na+].[Na+] [NCGC00161636-02]
6. CCC(OC(=O)c1ccc(S(C)(=O)=O)c([N+](=O)[O-])c1)C(=O)NC1C2CC3CC(C2)CC1C3 (stereo not drawn) [NCGC00188536-01]

-72%
-66%
-59%
-34%
-74%
-52%

Kindly give each listed record's CONFIRMATORY SCREEN Efficacy (%).
1. CCc1ccc(/C=C2/SC(=S)NC2=O)cc1 [NCGC00185994-01]
2. C=CCNc1oc(-c2cccc3ccccc23)nc1C#N.O=C(O)C(F)(F)F [NCGC00068824-04]
3. CC(=O)N1CCN(c2ccc(OCc3nn(C)c(C)c3-c3cccc4c(CCCOc5cccc6ccccc56)c(C(=O)O)n(Cc5cccnc5)c34)cc2)CC1 [NCGC00347174-02]

1. -93%
2. -78%
3. -77%

* * *

Exercise: state measured 384-well SCREEN Efficacy (%) for each of the compounds provided.
# Tested On: CIB1 and αIIb interaction (GST-CIB1 : F-αIIb peptide) (Homo sapiens)
# Construct: made in house; host or cells: BL-21 plus RIL cells (E. coli)
# Method: FP assay, 384-well format (screen)
# Type: binding
# Parameters: concentration or dose not given beside the values
# Test Conditions: F-αIIb peptide
Number first, unit second.

Previously resolved entries follow.
Compound | Result Value
Nc1c(S(=O)(=O)[O-])cc(Nc2ccc(Nc3nc(Cl)nc(Nc4ccc(S(=O)(=O)O)cc4)n3)c(S(=O)(=O)O)c2)c2c1C(=O)c1ccccc1C2=O.[Na+] | 60%
O=C(O)C(F)(F)F.O=c1c2ccccc2nc2sc(Nc3cccc(N4CCN5CCCCC5C4)c3)nn12 (stereo not drawn) | 42%

What value of measured 384-well SCREEN Efficacy (%) is listed for `O=C(Cc1ccc(Cl)c(Cl)c1)Nc1ccc(S(=O)(=O)Nc2ccon2)cc1.O=C(O)C(F)(F)F` ?
35%

* * *

# Tested On: CIB1 and αIIb interaction (CIB1-GST : F-αIIb peptide) (Homo sapiens)
# Construct: made in house; host or cells: BL-21 plus RIL cells (E. coli)
# Sequence (Q99828 1-191): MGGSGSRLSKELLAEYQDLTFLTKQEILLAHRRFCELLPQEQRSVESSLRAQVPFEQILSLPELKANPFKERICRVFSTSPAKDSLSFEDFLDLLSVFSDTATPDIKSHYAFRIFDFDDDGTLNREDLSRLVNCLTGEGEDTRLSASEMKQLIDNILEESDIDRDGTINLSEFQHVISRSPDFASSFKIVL
# Method: FP assay, 1536-well qHTS format (primary and confirmatory screen)
# Format: binding
# Test Conditions: qHTS FP screen hits, Table S2; negative = inhibition
Readout Type: Efficacy (%)
Give bare numbers, in %.

Compound | Readout Unit | Result Value
CCC(=O)NC(c1cccs1)c1cc(Br)c2cccnc2c1O (centres unmarked) | % | -54

Each compound below has a recorded value; state its Efficacy (%).
1. CC[PH](CC)(CC)[Au][S][C@@H]1O[C@H](COC(C)=O)[C@@H](OC(C)=O)[C@H](OC(C)=O)[C@H]1OC(C)=O
2. Cc1ccccc1NC(=O)CN1C(=O)N/C(=C\c2cn(-c3cccc(C(=O)O)c3)cn2)C1=O
3. O=C(O)c1ccccc1SC1=NS(=O)(=O)c2ccccc21
4. CC1=NN(c2ccc(C)c(C)c2)C(=O)/C1=N/Nc1cccc(-c2cccc(C(=O)O)c2)c1O
5. O=C(O)C(F)(F)F.O=c1c2ccccc2nc2sc(Nc3cccc(N4CCN5CCCCC5C4)c3)nn12 (centres unmarked)
6. C=C(CC)C(=O)c1ccc(OCC(=O)O)c(Cl)c1Cl
7. CCCCCCCCn1cc(CC(N)=O)c2cc(-c3cccc(C)c3)ccc21.O=C(O)C(F)(F)F

[-30, -24, -66, -69, -20, -28, -74]

* * *

# Tested On: GST-CIB1 : F-scrambled peptide (Homo sapiens, UniProt Q99828)
# Construct: made in house; host or cells: BL-21 plus RIL cells (E. coli)
# Method: FP scrambled-peptide counter screen, 1536-well format
# Format: binding
# Test Conditions: Table S3, counterscreen; negative = inhibition
I'd be grateful if you could share measured Efficacy (%) (counterscreen) for these entries.
Give bare numbers, in %.

The following molecules have reported results that may help.
Molecule | Readout Unit | Efficacy (%) (counterscreen)
CC(C)(O)CCc1ccc(OCc2cc(-c3cccc(OC(F)F)c3)c3ncccc3c2)cc1 | % | -28
Cc1coc2c1C(=O)C(=O)c1c-2ccc2c1CCCC2(C)C | % | -67
COC(=O)c1scc2c(O)cc(C(F)(F)F)nc12 | % | -67
CO[C@H](C(=O)[C@@H](O)[C@@H](C)O)[C@@H]1Cc2cc3cc(C[C@H]4C[C@H](O[C@H]5C[C@@H](O)[C@H](O)[C@@H](C)O5)[C@@H](O)[C@@H](C)O4)c(C)c(O)c3c(O)c2C(=O)[C@H]1O[C@@H]1C[C@H](O[C@@H]2C[C@H](O[C@@H]3C[C@](O)(CO)[C@@H](O)[C@H](C)O3)[C@@H](O)[C@H](C)O2)[C@@H](O)[C@H](C)O1 | % | -181

Give Efficacy (%) (counterscreen) for each listed item.
1. O=C(O)C(F)(F)F.Oc1cccc2cc(N3CCCC3)cnc12
2. CNc1nc2c(s1)C(c1c(F)cccc1Cl)CC(=O)N2.O=C(O)C(F)(F)F (centres unmarked)
3. O=C(O)C(F)(F)F.O=C1Nc2ccccc2/C1=N/NC(=S)Nc1ccc(O)cc1

[-34, 0, -61]

For the molecule shown here, Nc1nc2c(s1)C(c1ccccc1C(F)(F)F)CC(=O)N2.O=C(O)C(F)(F)F (centres unmarked) , give the reported Efficacy (%) (counterscreen).
-39

* * *

# Tested On: CIB1 and αIIb interaction (GST-CIB1 : F-αIIb peptide) (Homo sapiens)
# Construct: made in house; host or cells: BL-21 plus RIL cells (E. coli)
# Sequence (Q99828 1-191): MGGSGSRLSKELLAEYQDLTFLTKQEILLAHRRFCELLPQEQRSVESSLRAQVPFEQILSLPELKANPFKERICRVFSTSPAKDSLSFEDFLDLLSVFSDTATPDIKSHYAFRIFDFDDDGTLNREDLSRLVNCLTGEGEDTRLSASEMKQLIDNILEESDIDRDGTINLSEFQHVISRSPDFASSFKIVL
# Method: FP assay, 384-well format (screen)
# Format: binding
# Test Conditions: read-out: 384-well SCREEN IC50
Readout Type: IC50 (µM)
One number for each entry, in µM.

So what does the record say about IC50 for `CC[P](CC)(CC)=[Au][S][C@@H]1O[C@H](COC(C)=O)[C@@H](OC(C)=O)[C@H](OC(C)=O)[C@H]1OC(C)=O` ?
6.3
